These measurements were taken from ChEMBL document CHEMBL3621063.

test.details: Cytotoxicity against human MT4 cells
Type: cell-based
measured.endpoint: CC50
State the value, then name its unit.

stdin: Data request, read-out CC50, for `O=C(CSc1nnsc1-c1cccc2ccccc12)Nc1cccnc1Cl`
stdout: 121 µM

Now look at this entry.
stdin: Data request, read-out CC50, for `O=C(CSc1nnsc1-c1cccc2ccccc12)Nc1ccccc1Br`
stdout: 172 µM

---

test.details: Selectivity index, ratio of CC50 for human MT4 cells to EC50 for HIV-1 harboring reverse transcriptase K103N/Y181C double mutant infected in human MT4 cells
Type: toxicity, cell-based
experimental.conditions: read-out: Ratio CC50/EC50
measured.endpoint: selectivity ratio
Lab note: write the figure by itself, no unit.

stdin: Data request, read-out selectivity ratio, for `O=C(CSc1nnsc1-c1cccc2ccccc12)Nc1ccccc1Br`
stdout: 5

Now look at this entry.
stdin: Data request, read-out selectivity ratio, for `O=C(CSc1nnsc1-c1cccc2ccccc12)Nc1cccnc1Cl`
stdout: 24
